experimental system: cellular cereblon (CRBN) (Homo sapiens, UniProt Q96SW2)
test summary: NanoBRET Target Engagement Assay, competition with pomalidomide tracer in 293T.116 cells
conditions: NanoBRET TE 293T.116 CRBN 24 hours IC50 nM, 24 hours incubation, 293T.116 cells

{"columns": ["molecule", "IC50"],
 "data": [
  ["O=C1CCC(Oc2ccc(S(=O)(=O)F)cn2)C(=O)N1 (stereo not drawn)", "> 10000 nM"],
  ["O=C1CCC(n2c(=O)oc3c(S(=O)(=O)F)cccc32)C(=O)N1 (stereo not drawn)", "1000 to 10000 nM"],
  ["CN(c1cccc(S(=O)(=O)F)c1)C1CCC(=O)NC1=O (stereo not drawn)", "< 1000 nM"],
  ["Cc1cc(OC2CCC(=O)NC2=O)cc(OS(=O)(=O)F)c1 (stereo not drawn)", "1000 to 10000 nM"],
  ["Cc1ccc(OC2CCC(=O)NC2=O)cc1OS(=O)(=O)F (stereo not drawn)", "1000 to 10000 nM"],
  ["CN(c1cccc(OS(=O)(=O)F)c1)C1CCC(=O)NC1=O (stereo not drawn)", "1000 to 10000 nM"],
  ["O=C1CCC(Oc2ccc(C3CCNCC3)c(S(=O)(=O)F)c2)C(=O)N1 (stereo not drawn)", "< 1000 nM"],
  ["O=C1CCN(c2ccc(OS(=O)(=O)F)cc2)C(=O)N1", "1000 to 10000 nM"],
  ["COc1cc(OC2CCC(=O)NC2=O)cc(OS(=O)(=O)F)c1 (stereo not drawn)", "1000 to 10000 nM"]
]}

###

experimental system: cellular cereblon (CRBN) (Homo sapiens)
test summary: NanoBRET Target Engagement Assay, competition with pomalidomide tracer in 293T.116 cells
conditions: read-out: NanoBRET TE 293T.116 CRBN 2 hours Emax
Reported Emax values are given for each entry in this list.
endpoint label: Emax

{"columns": ["molecule", "data value"],
 "data": [
  ["O=C1CCC(Nc2ccc(C3CCNCC3)c(OS(=O)(=O)F)c2)C(=O)N1 (centres unmarked)", "< 50%"],
  ["O=C1NC(=O)C2(Nc3ccc(S(=O)(=O)F)cc3)CC1C2", "< 50%"],
  ["O=C1CCC(Oc2ccc(C3CCNCC3)c(S(=O)(=O)F)c2)C(=O)N1 (centres unmarked)", "< 50%"],
  ["O=C1CCN(c2ccc(S(=O)(=O)F)cc2)C(=O)N1", "< 50%"],
  ["CN(c1cccc(OS(=O)(=O)F)c1)C1CCC(=O)NC1=O (centres unmarked)", "< 50%"],
  ["Cc1ccc(OC2CCC(=O)NC2=O)cc1OS(=O)(=O)F (centres unmarked)", "< 50%"],
  ["O=C1CCC(CNc2cccc(OS(=O)(=O)F)c2)C(=O)N1 (centres unmarked)", "50 to 80%"],
  ["COc1ccc(OC2CCC(=O)NC2=O)cc1S(=O)(=O)F (centres unmarked)", "< 50%"],
  ["O=C1CCN(c2ccc(OS(=O)(=O)F)cc2)C(=O)N1", "50 to 80%"],
  ["Cn1nc(N2CCC(=O)NC2=O)c2cccc(OS(=O)(=O)F)c21", "< 50%"],
  ["O=C1NC(=O)C2(c3ccc(S(=O)(=O)F)cc3)CC1C2", "< 50%"],
  ["CN(c1cccc(S(=O)(=O)F)c1)C1CCC(=O)NC1=O (centres unmarked)", "< 50%"],
  ["O=C1CCC(c2ccc(N3CCNCC3)c(OS(=O)(=O)F)c2)C(=O)N1 (centres unmarked)", "< 50%"],
  ["COc1ccc(OC2CCC(=O)NC2=O)cc1OS(=O)(=O)F (centres unmarked)", "< 50%"],
  ["Cn1nc(N2CCC(=O)NC2=O)c2cccc(S(=O)(=O)F)c21", "< 50%"],
  ["O=C1CCC(c2ccc(S(=O)(=O)F)cc2)C(=O)N1 (centres unmarked)", "< 50%"],
  ["O=C1CCN(c2ccc(N3CCNCC3)c(OS(=O)(=O)F)c2)C(=O)N1", "50 to 80%"]
]}
